Target: recombinant human PDE10A1 (Homo sapiens, UniProt Q9Y233)
Construct: purchased BPS Bioscience Inc
Sequence (Q9Y233 1-779 isoform Q9Y233-1): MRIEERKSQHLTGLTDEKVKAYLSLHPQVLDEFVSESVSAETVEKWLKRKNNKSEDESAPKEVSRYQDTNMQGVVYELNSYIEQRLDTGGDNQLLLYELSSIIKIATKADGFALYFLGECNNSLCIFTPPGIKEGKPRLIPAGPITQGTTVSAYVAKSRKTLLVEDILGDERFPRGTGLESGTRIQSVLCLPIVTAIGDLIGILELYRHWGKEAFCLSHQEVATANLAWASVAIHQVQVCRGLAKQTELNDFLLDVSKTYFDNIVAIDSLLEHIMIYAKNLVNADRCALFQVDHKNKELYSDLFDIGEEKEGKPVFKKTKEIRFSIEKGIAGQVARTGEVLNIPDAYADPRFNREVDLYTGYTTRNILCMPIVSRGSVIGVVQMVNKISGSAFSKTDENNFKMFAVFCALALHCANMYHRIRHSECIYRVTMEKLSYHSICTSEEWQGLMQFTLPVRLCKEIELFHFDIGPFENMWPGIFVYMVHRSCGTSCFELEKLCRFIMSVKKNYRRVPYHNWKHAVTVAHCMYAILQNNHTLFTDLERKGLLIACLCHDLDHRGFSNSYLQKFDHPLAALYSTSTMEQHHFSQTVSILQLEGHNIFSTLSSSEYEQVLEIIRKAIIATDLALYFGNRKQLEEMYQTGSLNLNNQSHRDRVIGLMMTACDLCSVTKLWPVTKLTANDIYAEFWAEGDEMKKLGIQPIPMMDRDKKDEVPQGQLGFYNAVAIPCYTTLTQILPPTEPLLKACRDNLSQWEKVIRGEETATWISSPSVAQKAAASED
Experiment: In vitro PDE assay (Ba(OH)2 precipitation), PDE10A
Type: biochemical
Conditions: 40 nM cAMP substrate; mean ± SD of three independent experiments
Each entry below carries its reported IC50.
I only need the number, in µM, no unit after it.

[[record]]
molecule = "CCc1nnc2c3ccccc3nc(Nc3cccc(C(=O)O)c3)n12"
assay_system = "recombinant human PDE10A1 (Homo sapiens, UniProt Q9Y233)"
property_label = "IC50"
reported_result = 1.6


The value of IC50 recorded for CCc1nnc2c3ccccc3nc(Nc3cccc(C)c3)n12 [BC8-15C] when tested on recombinant human PDE10A1 (Homo sapiens, UniProt Q9Y233) reads 1.5

recombinant human PDE10A1 (Homo sapiens, UniProt Q9Y233) data for Cc1nnc2c3ccccc3nc(Nc3cccc(C(=O)O)c3)n12 [BC8-15A] ; its IC50: 2.3

Hey, just so you know, these numbers are from paper PMC3743849.
